target: KDR (phospho-KDR, VEGF165-stimulated HUVEC cells) (Homo sapiens (Human), UniProt P35968); assay: KDR autophosphorylation ELISA in HUVEC cells (Example G); type: cell-based; settings: cellular activity; KDR autophosphorylation ELISA in HUVEC cells
Sequence (P35968 20-1356): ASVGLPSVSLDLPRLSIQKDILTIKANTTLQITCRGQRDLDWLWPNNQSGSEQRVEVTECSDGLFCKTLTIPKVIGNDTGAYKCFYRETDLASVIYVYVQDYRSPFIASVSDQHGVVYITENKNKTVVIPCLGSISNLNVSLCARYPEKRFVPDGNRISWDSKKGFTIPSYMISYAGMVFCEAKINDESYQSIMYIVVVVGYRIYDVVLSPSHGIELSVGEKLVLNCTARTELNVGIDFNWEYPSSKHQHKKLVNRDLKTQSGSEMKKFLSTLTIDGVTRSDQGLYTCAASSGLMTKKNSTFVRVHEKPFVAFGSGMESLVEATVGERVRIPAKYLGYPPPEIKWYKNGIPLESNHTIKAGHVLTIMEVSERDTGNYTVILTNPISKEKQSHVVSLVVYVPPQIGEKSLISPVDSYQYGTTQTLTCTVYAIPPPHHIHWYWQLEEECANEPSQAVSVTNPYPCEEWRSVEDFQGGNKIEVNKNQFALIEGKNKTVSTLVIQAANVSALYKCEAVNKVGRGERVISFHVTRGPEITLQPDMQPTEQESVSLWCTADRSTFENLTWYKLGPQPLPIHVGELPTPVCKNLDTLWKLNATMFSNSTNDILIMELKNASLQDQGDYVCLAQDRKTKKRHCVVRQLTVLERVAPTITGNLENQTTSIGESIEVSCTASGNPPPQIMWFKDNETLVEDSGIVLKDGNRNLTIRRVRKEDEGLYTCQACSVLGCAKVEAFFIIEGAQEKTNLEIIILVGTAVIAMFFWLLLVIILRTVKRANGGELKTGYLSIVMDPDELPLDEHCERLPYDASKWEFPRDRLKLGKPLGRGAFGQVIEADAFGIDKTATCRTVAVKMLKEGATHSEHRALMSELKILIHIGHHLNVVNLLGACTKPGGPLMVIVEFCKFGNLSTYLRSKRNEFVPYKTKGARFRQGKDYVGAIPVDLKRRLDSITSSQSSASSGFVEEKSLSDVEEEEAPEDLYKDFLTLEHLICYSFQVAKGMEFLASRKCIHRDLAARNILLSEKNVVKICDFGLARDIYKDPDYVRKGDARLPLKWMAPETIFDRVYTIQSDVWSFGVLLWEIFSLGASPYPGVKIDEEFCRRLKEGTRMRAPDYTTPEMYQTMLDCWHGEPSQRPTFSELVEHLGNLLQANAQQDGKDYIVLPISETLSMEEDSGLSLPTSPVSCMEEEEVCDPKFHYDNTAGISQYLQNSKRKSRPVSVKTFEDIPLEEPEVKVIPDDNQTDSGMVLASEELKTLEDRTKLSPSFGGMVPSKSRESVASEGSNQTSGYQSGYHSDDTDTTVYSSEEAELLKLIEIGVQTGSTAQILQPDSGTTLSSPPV
pIC50: −log10 of the molar value.
Quantity Measured: pIC50

Some compounds with known pIC50 results, for comparison:
{"Test Smiles": "COCCOc1cnc2c(Oc3ccc(NC(=O)c4cc(C(C)=O)c(C)n(-c5ccc(F)cc5)c4=O)cc3F)ccnc2c1", "Measured Target": "KDR (phospho-KDR, VEGF165-stimulated HUVEC cells) (Homo sapiens (Human), UniProt P35968)", "Recorded Result": "< 6.52"}
{"Test Smiles": "Cc1ncc(C(=O)Nc2ccc(Oc3ccnc4cc(C(N)=O)cnc34)c(F)c2)c(O)c1-c1ccc(F)cc1", "Measured Target": "KDR (phospho-KDR, VEGF165-stimulated HUVEC cells) (Homo sapiens (Human), UniProt P35968)", "Recorded Result": "> 7.00"}
{"Test Smiles": "COc1nc2c(Oc3ccc(NC(=O)c4cnc(C)c(-c5ccc(F)cc5)c4O)cc3F)ccnc2cc1C", "Measured Target": "KDR (phospho-KDR, VEGF165-stimulated HUVEC cells) (Homo sapiens (Human), UniProt P35968)", "Recorded Result": "> 7.00"}
{"Test Smiles": "CCn1cc(C(=O)Nc2ccc(Oc3ccnc4cc(OC)c(OC)nc34)cc2)c(=O)c(-c2ccc(F)cc2C)c1CO", "Measured Target": "KDR (phospho-KDR, VEGF165-stimulated HUVEC cells) (Homo sapiens (Human), UniProt P35968)", "Recorded Result": "< 6.52"}
{"Test Smiles": "Cc1nc2c(Oc3ccc(NC(=O)c4cn(C(C)C)c(C)c(-c5ccc(F)cc5)c4=O)cc3F)ccnc2cc1-c1cccnc1", "Measured Target": "KDR (phospho-KDR, VEGF165-stimulated HUVEC cells) (Homo sapiens (Human), UniProt P35968)", "Recorded Result": "< 6.52"}

Task: # query: pIC50 of entry COCc1ncc(C(=O)Nc2ccc(Oc3ccnc4cc(OC)c(OC)nc34)c(F)c2)c(O)c1-c1ccc(F)cc1
Result: > 7.00

Task: # query: pIC50 of entry COc1cc2nccc(Oc3ccc(NC(=O)c4cnc(C)c(-c5ccc(F)cc5)c4O)cc3)c2nc1OC(C)C
Result: > 7.00

====

molecular target: Human MER (residues 528-999) (Homo sapiens (Human), UniProt Q12866); assay: Human Mer kinase assay, HTRF KinEase (Example C-2); type: biochemical; settings: protocol of Example C-2 (other compounds)
Sequence (Q12866 528-999): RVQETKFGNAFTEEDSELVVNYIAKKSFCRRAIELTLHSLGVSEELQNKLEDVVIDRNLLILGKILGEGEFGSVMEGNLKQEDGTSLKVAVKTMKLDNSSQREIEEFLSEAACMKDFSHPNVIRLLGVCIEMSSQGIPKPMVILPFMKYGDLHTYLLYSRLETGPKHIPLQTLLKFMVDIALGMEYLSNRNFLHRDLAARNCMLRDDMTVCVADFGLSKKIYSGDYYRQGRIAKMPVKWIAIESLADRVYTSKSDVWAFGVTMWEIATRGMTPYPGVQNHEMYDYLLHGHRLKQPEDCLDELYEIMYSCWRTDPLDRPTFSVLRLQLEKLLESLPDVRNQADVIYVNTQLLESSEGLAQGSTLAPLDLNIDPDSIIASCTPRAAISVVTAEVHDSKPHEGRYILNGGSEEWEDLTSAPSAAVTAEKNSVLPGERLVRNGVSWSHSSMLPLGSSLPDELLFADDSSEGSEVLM
pIC50: −log10 of the molar value.
Quantity Measured: pIC50

Some compounds with known pIC50 results, for comparison:
{"Compound": "COc1cnc2c(Oc3ccc(NC(=O)c4cccn(-c5ccc(F)cc5)c4=O)cc3F)ccnc2c1", "pIC50": "> 7.00"}
{"Compound": "COc1cc2nccc(Oc3ccc(NC(=O)c4c5n(cc(-c6ccc(F)cc6)c4=O)CCC5)cc3)c2nc1OC", "pIC50": "> 7.00"}
{"Compound": "CC(C)n1cc(C(=O)Nc2ccc(Oc3ccnc4cc(F)cnc34)c(F)c2)c(=O)c(-c2ccc(F)cc2)c1", "pIC50": "> 7.00"}

Task: # query: pIC50 of entry COc1cc2nccc(Oc3ccc(NC(=O)c4cn(C5CC5)c(C)c(-c5ccc(F)cc5)c4=O)cc3F)c2nc1OC
Result: > 7.00

Task: # query: pIC50 of entry CCn1cc(C(=O)Nc2ccc(Oc3ccnc4cc(OC)cnc34)cc2)c(=O)c(-c2ccc(F)cc2)c1C
Result: > 7.00
